Test: NCI Yeast Anticancer Drug Screen. Data for the mec2-1 strain (AID 157)
Settings: S. cerevisiae mec2-1 strain, at 1.2 µM, hits give high values
Compounds without any hit were thinned out: in the full panel of roughly 79,000, 15% have a hit.

Compound: OC(CC(O)(C(F)(F)F)C(F)(F)F)c1ccc(C(O)CC(O)(C(F)(F)F)C(F)(F)F)cc1 (stereo unspecified)
Readout unit: %
growth inhibition: 18
//
Compound: O=C(C(Cl)=C(N1CCCCC1)N1CCCCC1)C(Cl)Cl
Readout unit: %
growth inhibition: 2
//
Compound: BrC1C2CCC3OC3C12 (stereo unspecified)
Readout unit: %
growth inhibition: 0
//
Compound: CCN(CC)CCNc1ccc2ncn3c4ccc(O)cc4c(=O)c1c23
Readout unit: %
growth inhibition: -3
//
Compound: Cc1ccc(S(=O)(=O)Nc2cccc3cccnc23)cc1
Readout unit: %
growth inhibition: 7
//
Compound: CC1=NN(C(=O)c2ccccc2O)C(=O)/C1=C/c1ccco1
Readout unit: %
growth inhibition: -4
//
Compound: Cc1ccc(S(=O)(=O)NC(=O)C2C(=O)CC3(CCCCC3)CC2=O)cc1
Readout unit: %
growth inhibition: -25
//
Compound: Cn1c(-c2ccc(/C=N\N3CCN(/N=C/c4ccc(-c5c[n+]6ccsc6n5C)cc4)CC3)cc2)c[n+]2ccsc12
Readout unit: %
growth inhibition: 50
//
Compound: CC(=O)NC(c1nc2cc(C)c(C)cc2[nH]1)c1nc2cc(C)c(C)cc2[nH]1
Readout unit: %
growth inhibition: 11
//
Compound: OB(O)c1ccccc1C#Cc1ccccc1
Readout unit: %
growth inhibition: -1
//
Compound: [N-]=[N+]=NC1(c2ccccc2)C(=O)Nc2ccccc2C1=O (stereo unspecified)
Readout unit: %
growth inhibition: 2

###

Assay: NCI Yeast Anticancer Drug Screen. Data for the mlh1 rad18 strain (AID 175)
Conditions: S. cerevisiae mlh1 rad18 strain growth inhibition; at 50.0 µM
Compounds without any hit were thinned out: in the full panel of roughly 79,000, 15% have a hit. The source made the active and inactive calls. Cut-off read from the data, not from the text of the source: active = growth inhibition above about 70%; inactive = the rest.
Outcomes: 1 (yes) for active, 0 (no) for inactive

Compound: O=C1Nc2ccc(Br)cc2C1=Nc1cccnc1
Class: 0 (no)

Compound: O=S(=O)(NC1CCCC(c2ccccc2)C1)c1ccccc1 (stereo not drawn)
Class: 0 (no)

Compound: CC1=CC(=O)C=CC1=Nc1cc(Cl)c(O)c(Cl)c1
Class: 1 (yes)

Compound: C[C@H](CCC1=NC(C)(C)CO1)C1CCC2[C@@H]3C(O)C[C@@H]4CC(O)CC[C@]4(C)C3CC[C@@]21C (stereo partly drawn)
Class: 1 (yes)

Compound: CCN(CC)CCNc1ccc2nc(C)n3c4ccc(O)cc4c(=O)c1c23
Class: 1 (yes)

Compound: COc1cc(C2C3=C(COC3=O)Oc3cc4c(cc32)OCO4)cc(OC)c1O (stereo not drawn)
Class: 1 (yes)

Compound: Nc1ccc2c(c1)C(=O)c1c(F)cccc1-2
Class: 1 (yes)

Compound: COc1ccc2cc3c4cc5c(cc4cc[n+]3cc2c1OC)OCO5
Class: 1 (yes)

Compound: O=C(Nc1cccs1)c1ccccc1
Class: 1 (yes)

Compound: [N-]=[N+]=NC1(c2ccccc2)C(=O)Nc2ccccc2C1=O (stereo not drawn)
Class: 0 (no)

Compound: O=c1cccccc1[O-].O=c1cccccc1[O-].O=c1cccccc1[O-].[Eu+3]
Class: 1 (yes)

Compound: CCC[CH2][Sn]([CH2]CCC)([CH2]CCC)/[C](=C/[Si](C)(C)c1ccccc1)c1ccc2c(c1)OCO2
Class: 1 (yes)

Compound: CC(C)Cc1ncc(CCCN=C(N)N)[nH]c1=O
Class: 0 (no)

Compound: COc1ccc2c3c1OC(C)C31CC(=O)CCC1CC2 (stereo not drawn)
Class: 0 (no)

Compound: CC1(C)CC(=O)C(C(=O)Nc2cccs2)=C(O)C1
Class: 1 (yes)

Compound: S=C1N(c2ccc(Cl)cc2)C2=C(N=Nc3ccccc3)C(=Nc3ccccc3S2)N1c1ccccn1
Class: 1 (yes)

Compound: CCO/C=C1\SC(=S)N(c2ccc(OCC)cc2)C1=O
Class: 0 (no)

Compound: O=C1CCC(Cc2ccccc2)CN1 (stereo not drawn)
Class: 0 (no)

Compound: CCOP(=O)(OCC)/C(C#N)=C/c1ccc(-c2ccc(F)cc2F)o1
Class: 0 (no)

Compound: CCOC(=O)/C(=C/c1cccc(Cl)c1)N(CC)CC
Class: 1 (yes)

Compound: CC1=NN(C(=O)CC(=O)NC(=O)/C=C\c2ccccc2)C(=O)C1N=Nc1ccc([N+](=O)[O-])cc1 (stereo not drawn)
Class: 1 (yes)

Compound: O=c1c2ccccc2nc(-c2cccc([N+](=O)[O-])c2)n1O
Class: 1 (yes)

Compound: Cc1cc(C)c(S(=O)(=O)c2ccc(Cl)cc2)c(C)c1
Class: 0 (no)

###

Readings of growth inhibition for the listed compounds
Test: NCI Yeast Anticancer Drug Screen. Data for the sgs1 strain (AID 173);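 further: 0% = growth of vehicle-only control cultures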
Settings: S. cerevisiae sgs1 mutant, at 100.0 µM, hits give high values
Method: Growth inhibition of yeast strains with defined genetic alterations is measured as a screen for potential anti-cancer activity. Selected strains with alterations in DNA damage repair or cell cycle control were exposed to compounds and growth inhibition was measured relative to vehicle treated controls. The strain used in this assay is sgs1
This is part of a sample that, as a whole, favours compounds with a hit. Of some 79,000 tested, about 15% had one in any assay.

Compound: Clc1ccc(/C(=C\c2ccccc2)Cn2ccnc2)cc1
growth inhibition (%): 83
//
Compound: COc1ccc(C(C)c2cc3c(cc2OCC(C)=O)OCO3)cc1 (configuration not stated)
growth inhibition (%): 77
//
Compound: CCCCOc1ccc2nc(C)cc(N=[N+]=[N-])c2c1
growth inhibition (%): 96
//
Compound: O=[N+]([O-])c1ccc2nc(=S)[nH]n2c1
growth inhibition (%): 47
//
Compound: CCOC(=O)/C(=C/c1cccc(Cl)c1)N(CC)CC
growth inhibition (%): 96
//
Compound: COc1ccc2nc3cccc([N+](=O)[O-])c3c(NCCCCCC(=O)O)c2c1
growth inhibition (%): 98
//
Compound: O=c1[nH]c2c([N+](=O)[O-])cccc2c2ccccc12
growth inhibition (%): 90
//
Compound: O=S(=O)(c1ccccc1)N1CN2CN(C1)CN(S(=O)(=O)c1ccccc1)C2
growth inhibition (%): -19
//
Compound: N#CCC(=O)N/N=C(\c1ccccc1)C(c1ccccc1)C1(O)C(=O)Nc2c(Cl)ccc(Cl)c21 (configuration not stated)
growth inhibition (%): 37
//
Compound: CN(C)CCNCCCNc1c2ccccc2nc2cccc([N+](=O)[O-])c12
growth inhibition (%): 89
//
Compound: c1ccc2c(c1)ccn2CCc1c[nH]c2ccccc12
growth inhibition (%): 95
//
Compound: CCC[CH2][Sn]([CH2]CCC)([CH2]CCC)/[C](=C/[Si](C)(C)c1ccccc1)c1ccc2c(c1)OCO2
growth inhibition (%): 90
//
Compound: Cc1cc(C)c2[s+]snc2c1
growth inhibition (%): 36
//
Compound: COc1cc2c(cc1OC)[C@@H](Nc1ccc(C#N)cc1)C1COC(=O)[C@@H]1C2c1cc(OC)c(O)c(OC)c1 (some centres not stated)
growth inhibition (%): 85
//
Compound: CC(CN(C)C)C(=O)/C=C/c1ccc(Cl)c(Cl)c1 (configuration not stated)
growth inhibition (%): 98
//
Compound: Cc1cccc2c(NCCCN(C)C)c3c([N+](=O)[O-])ccc(C)c3nc12
growth inhibition (%): 98
//
Compound: CCCNC(=O)OCc1c(COC(=O)NCCC)c(-c2ccc(Cl)c(Cl)c2)n2c1CCC2
growth inhibition (%): 62
//
Compound: C=COC(=O)N[C@H]1CCc2cc(OC)c(OC)c(OC)c2-c2ccc(SC)c(=O)cc21
growth inhibition (%): 73
//
Compound: O=[N+]([O-])c1cc[n+]([O-])c(Cl)c1
growth inhibition (%): 100
//
Compound: CC(/C=C/c1ccc([N+](=O)[O-])o1)=N/N1CC(CN2CCOCC2)OC1=O (configuration not stated)
growth inhibition (%): 97
//
Compound: Cc1ccnc2c(O)cccc12
growth inhibition (%): 99
//
Compound: CC1(C)CC(=O)C(C(=O)Nc2cccs2)=C(O)C1
growth inhibition (%): 99
